Test system: UO-31 renal
Test: NCI-60 one-dose screen, 48 h
Conditions: 10 µM unless noted
Compounds without any hit were thinned out: in the full panel of roughly 83,000, 20% have a hit. The source made the active and inactive calls. How the source made its calls: active means growth percent below 10; inactive means the rest.
// classify into 1 = active, -1 = inactive

q: // param item: `Cc1ccc(-c2nn(C)c(=O)c3noc(-c4ccc(C)cc4)c23)cc1` ; yields the recorded call
a: -1

q: Follow-up entry: `COc1ccc(/C=N/Nc2cc(=O)[nH]c3ccc(Cl)cc23)cc1`
a: -1

q: Try the molecule `O=CN(SSN(C=O)C1CCCCC1)C1CCCCC1`
a: -1

q: Quick one: `Fc1cc2c(cc1Cl)N(c1ncnc3ccc(-c4cnc5cnccn45)cc13)CC2`
a: -1

q: `COc1cc2cc(Oc3ccc(NC(=O)Nc4cccc(C(F)(F)F)c4)cc3)c(C)nc2cc1OCCN1CCOCC1` , same question.
a: -1

---

System: OVCAR-5 ovarian
Assay: NCI-60 one-dose screen, 48 h
Settings: 10 µM unless noted
About 83,000 compounds went through this panel and 20% of them were active in at least one assay; those are over-represented in the sample as a whole. The source made the active and inactive calls. Rule for the calls: active = growth percent below 10; inactive = the rest.
// one of active, inactive, no free text

As a guide, the following entries are already answered.
molecule="CCC12CCC[N+]3([O-])CCC4(C(=Nc5ccccc54)C(O)(C(=O)OC)C1)C23 (stereo not drawn)" target_desc="OVCAR-5 ovarian" label=inactive
molecule=c1ccc2c(c1)Nc1ccncc1S2 target_desc="OVCAR-5 ovarian" label=inactive
molecule=Oc1ccc(-c2nc3ccc4[nH]ncc4c3c3c2CCCC3)c2cccnc12 target_desc="OVCAR-5 ovarian" label=inactive
molecule="Cc1cc(O)c(C2=NN(c3ccc(S(N)(=O)=O)cc3)C(c3ccccc3O)C2)cc1Cl (stereo not drawn)" target_desc="OVCAR-5 ovarian" label=active
molecule=O=c1ccc(N=Nc2ccc([N+](=O)[O-])cc2)ccc1O target_desc="OVCAR-5 ovarian" label=inactive
molecule=COc1ccc(-c2cc(-c3cc(OC)c(OC)c(OC)c3)nc(N3CCOCC3)c2C#N)cc1 target_desc="OVCAR-5 ovarian" label=inactive

Alright, here's another molecule for you.
q: Hello, I am checking results. What call was entered for `Cc1cc(C)c(-c2c(N)cc(Br)cc2Br)c(N)c1` ?
a: inactive

---

System: OVCAR-3 ovarian
Assay: NCI-60 one-dose screen, 48 h (100 = growth as untreated, 0 = no growth, -100 = all killed)
Conditions: 10 µM unless noted
Compounds without any hit were thinned out: in the full panel of roughly 83,000, 20% have a hit.
# growth binned as one = under 50%, two = from 50% up to 90%, three = 90% and over

// known answers, use as guide
compound=c1ccc2c(c1)Nc1ccncc1S2 label=three
compound=Cc1ccc(C(=O)NCCNc2nccc(-c3c(-c4cccc(F)c4)nc4sccn34)n2)cc1 label=two
compound=N#Cc1c(-c2ccc(Cl)cc2)nc2c(c(-c3ccccc3)nn2-c2ccccc2)c1-c1ccc(O)cc1 label=one
compound=CC(C)C(=O)Nc1ccc(-c2nc(-c3cccc(OCCN4CCOCC4)c3)c(-c3ccnc(Br)c3)[nH]2)cc1 label=two
compound=O=C(Nn1c(NCC(=O)N2c3ccccc3Sc3ccccc32)nnc1-c1ccc(O)cc1)c1ccccc1 label=three

q: Could you tell me which band `c1ccc(-c2nc3nonc3nc2-c2ccccc2)cc1` belongs to?
a: one
